- Experimental Target: P. falciparum apicoplast DNA polymerase (Pf-apPOL) (Plasmodium falciparum)
- Sequence (Q8ILY1 entry or part of it): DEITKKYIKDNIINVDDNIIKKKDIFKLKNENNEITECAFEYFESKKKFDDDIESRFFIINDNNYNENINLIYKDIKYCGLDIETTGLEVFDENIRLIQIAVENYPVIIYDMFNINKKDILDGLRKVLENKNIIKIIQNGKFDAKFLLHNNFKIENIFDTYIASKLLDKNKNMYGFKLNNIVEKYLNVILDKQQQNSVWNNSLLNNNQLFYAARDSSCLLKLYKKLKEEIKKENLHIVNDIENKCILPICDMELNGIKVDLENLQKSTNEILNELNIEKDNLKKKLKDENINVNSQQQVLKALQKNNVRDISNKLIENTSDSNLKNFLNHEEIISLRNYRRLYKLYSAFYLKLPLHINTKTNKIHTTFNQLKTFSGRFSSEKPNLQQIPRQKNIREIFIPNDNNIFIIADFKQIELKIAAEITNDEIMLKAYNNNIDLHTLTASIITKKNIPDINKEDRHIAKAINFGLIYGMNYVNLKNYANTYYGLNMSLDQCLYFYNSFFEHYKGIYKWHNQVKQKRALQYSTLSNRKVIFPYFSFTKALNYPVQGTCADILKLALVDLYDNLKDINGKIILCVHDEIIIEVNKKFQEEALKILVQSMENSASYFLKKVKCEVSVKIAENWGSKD
- Procedure Text: Fluorescence-based high-throughput DNA polymerase assay (molecular beacon), primary screen and dose-response
- Assay type: biochemical
- Measurement Context: DRC-2; read at 90'; concentration 2.5
Measured % inhibition ApPOL 90' 2.5 accompanies every entry in the list below.
Show the value, then the unit it is measured in.

-- ask Can you look up the measured % inhibition ApPOL 90' 2.5 of `Cc1cc2[nH]c(C(=O)Nc3ccc(F)cc3)c(CN3CCOCC3)c2s1` for me?
-- reply 0.312%

Further cases:
-- ask Tell me the measured % inhibition ApPOL 90' 2.5 of `Cc1ccsc1Cn1c(C)ccc1C` , please.
-- reply -3%

-- ask Also `O=C(c1ccccc1)N1CCc2c(nc3cc(-c4ccccc4)[nH]n3c2=O)C1` ?
-- reply 5%

-- ask Also `Cn1nc(-c2nc(-c3ccccc3)no2)c2c1CCN(C(=O)Cc1cccs1)C2` ?
-- reply 7.37%

-- ask Would you kindly repeat that for `CC(=O)OCC1=C(C(=O)[O-])N2C(=O)[C@@H](NC(=O)Cc3cccs3)[C@H]2SC1.[Na+]` ?
-- reply 1.25%

-- ask Param item: `O=C(CCc1csc(NC(=O)Nc2ccccc2)n1)Nc1nc2ccccc2s1`
-- reply -4%

-- ask Next: `CCCc1ccc(Oc2coc3cc(OC)ccc3c2=O)cc1`
-- reply 4.24%

-- ask Subsequent entry: Cc1ccc(N2CCC(NC(=O)Cc3cccs3)C2=O)cc1C (centres unmarked)
-- reply -2.11%
